- protocolNotes: amyloid nucleation score (Sup35N fusion, yeast selection) (log enrichment); library NNK3; higher = more nucleation; inactive = no reads after selection;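 further: zero at mode of non-aggregating sequences after 7 days selection at 30°C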
endpoint: amyloid nucleation score

1) AMQIYTLVMGSPRDFDYWKV    1.14
2) WASLGINR    inactive
3) VGILLFFYLTNVEQAVTFVR    inactive
4) LNLHSSLGMFASLGDMIRVT    inactive
5) FYLGLAYVLSWVGFCVIGVS    inactive

# ---- query sequence ----
Entry LSVITVLNKKNRSDIMWIMI — recorded amyloid nucleation score = inactive

* * *

- protocolNotes: amyloid nucleation score (Sup35N fusion, yeast selection) (log enrichment); library NNK2; higher = more nucleation; inactive = no reads after selection
endpoint: amyloid nucleation score

Sample records with amyloid nucleation score:
1) YCYEPLTC    0.508
2) GCGCATGREDTPGNIGWMV    0.507

get_value(item= TYKFLSVFIDEFGQDFIMIW , readout=amyloid nucleation score) returns -1.11

Per the record, IFDAFWYTVTVRDNDG has amyloid nucleation score of 1.76

Entry FNCGASKNSLKNEGKW , amyloid nucleation score reported as -0.925

The substance HLCPTHLNNETLRTNFWAN showed amyloid nucleation score equal to 1.96

Memo: VVLQTKHSLAISGQQLIPMA , reported amyloid nucleation score: 0.32

amyloid nucleation score reading for VQDYFFSCFATRSV : 3.26

Measured amyloid nucleation score, PCITRTARSQIVTFKRG : -0.35

Recorded amyloid nucleation score (substance GIMSNLGQSPRVRSHSRRQQ ): 0.747

amyloid nucleation score reading for HRCNMGLSWTGVYQRVGKSS : 0.757

Memo: HHATKNFCTLFCLKSWGRFS , reported amyloid nucleation score: 7.77

Briefly, amyloid nucleation score measured for IADQTSSSDYLVRTVFNFSV : 1.72

Noted for NVVKTWPIYIMRPLWTAHSN : its amyloid nucleation score reads -0.641

Record LMIAFKQRFIPS , field amyloid nucleation score: 1.12

Entry under test: FDTRITMMCALWTFPAT . Its amyloid nucleation score was 7.15

Documented amyloid nucleation score of WRFWLPAKWISRGSFIVYWI : -0.717

Memo: SLLNTGRYCWC , reported amyloid nucleation score: 1.05

Form field amyloid nucleation score, entry RIVMKRRFYCKSWSLIVHPG : -0.826

Value of amyloid nucleation score reported for the substance INGVPNGYMATLGTTCVKKF is -1.11

For this substance ( IRTDSTNMCF ), measured amyloid nucleation score is -0.647

Short answer for AFGFSI : amyloid nucleation score was -1.3

// sample RRSWDTYMGERGHQLPNPCG , its amyloid nucleation score was 0.93
